Data provenance: PubChem BioAssay AID1919005

- Test system: 855422-203-R-J1-PDC complex spheroid growth
- procedure_details: Anticancer human tumor 855422-203-R-J1-PDC patient-derived bladder carcinoma cell line growth inhibition [AhR]; active = viability on the fitted dose curve at most 10% of control; inactive = the rest
- run_parameters: second compound 3.16 µM; first compound 3.16 µM
Outcomes: active, inactive

>>> label_value("COc1cc(C2c3cc4c(cc3C(OC3OC5COC(C)OC5C(O)C3O)C3COC(=O)C23)OCO4)cc(OC)c1O (stereo not drawn) + Cc1cncc(-c2nc(NCCc3c[nH]c4ccccc34)c3ncn(C(C)C)c3n2)c1")
"active"
>>> label_value("Nc1ccn(C2OC(CO)C(O)C2(F)F)c(=O)n1 (stereo not drawn) + Cc1cncc(-c2nc(NCCc3c[nH]c4ccccc34)c3ncn(C(C)C)c3n2)c1")
"active"
>>> label_value("CC(C)c1c(-c2ccccc2)nc2c(C#N)c[nH]n2c1=O + CC(CO)NC(=O)c1cc(-c2ccc(Cl)cc2)nn(-c2cnn(C)c2)c1=O")
"inactive"

====

- Test system: 855422-203-R-J1-PDC complex spheroid growth
- procedure_details: Anticancer human tumor 855422-203-R-J1-PDC cell line growth inhibition [AhR];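 also: spheroids exposed to agents for seven days before readout; percent of DMSO vehicle control luminescence viability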
- run_parameters: second compound 0.316 µM; first compound 0.949 µM; active compounds read low
measured_parameter: viability, T/C (%)

>>> val("CCN(c1cc(-c2ccc(CN3CCOCC3)cc2)cc(C(=O)NCc2c(C)cc(C)[nH]c2=O)c1C)C1CCOCC1 + Cc1ccccc1N=Nc1ccc(NC(=O)c2ccnn2C)c(C)c1")
87
>>> val("CCN(c1cc(-c2ccc(CN3CCOCC3)cc2)cc(C(=O)NCc2c(C)cc(C)[nH]c2=O)c1C)C1CCOCC1 + CC(CO)NC(=O)c1cc(-c2ccc(Cl)cc2)nn(-c2cnn(C)c2)c1=O")
92.1
>>> val("O=C(C=Cn1cnc(-c2cc(C(F)(F)F)cc(C(F)(F)F)c2)n1)NNc1cnccn1 + CC(CO)NC(=O)c1cc(-c2ccc(Cl)cc2)nn(-c2cnn(C)c2)c1=O")
36.8
>>> val("O=C(C=Cn1cnc(-c2cc(C(F)(F)F)cc(C(F)(F)F)c2)n1)NNc1cnccn1 + Cc1ccccc1N=Nc1ccc(NC(=O)c2ccnn2C)c(C)c1")
57.6
>>> val("CCN(c1cc(-c2ccc(CN3CCOCC3)cc2)cc(C(=O)NCc2c(C)cc(C)[nH]c2=O)c1C)C1CCOCC1 + Cc1cncc(-c2nc(NCCc3c[nH]c4ccccc34)c3ncn(C(C)C)c3n2)c1")
76.2
>>> val("O=C(C=Cn1cnc(-c2cc(C(F)(F)F)cc(C(F)(F)F)c2)n1)NNc1cnccn1 + Cc1cncc(-c2nc(NCCc3c[nH]c4ccccc34)c3ncn(C(C)C)c3n2)c1")
26.3

====

- System: 855422-203-R-J1-PDC complex spheroid growth
- procedure_details: Anticancer human tumor 855422-203-R-J1-PDC cell line growth inhibition [AhR]; active = viability on the fitted dose curve at most 10% of control; inactive = the rest;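 also: spheroids exposed to agents for seven days before readout; percent of DMSO vehicle control luminescence viability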
- run_parameters: second compound 10 µM; first compound 0.0316 µM
Outcomes: 1.0 for active, 0.0 for inactive

>>> label_value("CC[C@@]1(O)C(=O)OCc2c1cc1n(c2=O)Cc2cc3c(CN(C)C)c(O)ccc3nc2-1 + CC(CO)NC(=O)c1cc(-c2ccc(Cl)cc2)nn(-c2cnn(C)c2)c1=O")
0.0
>>> label_value("NS(=O)(=O)OCC1CC(n2ccc3c(NC4CCc5ccccc54)ncnc32)CC1O (stereo unspecified) + Cc1ccccc1N=Nc1ccc(NC(=O)c2ccnn2C)c(C)c1")
0.0
>>> label_value("CC1COCCN1c1cc(-c2ccnn2C)c2ccnc(-c3ccn[nH]3)c2n1 (stereo unspecified) + Cc1cncc(-c2nc(NCCc3c[nH]c4ccccc34)c3ncn(C(C)C)c3n2)c1")
1.0
>>> label_value("O=C(c1cc(Cc2n[nH]c(=O)c3ccccc23)ccc1F)N1CCN(C(=O)C2CC2)CC1 + Cc1ccccc1N=Nc1ccc(NC(=O)c2ccnn2C)c(C)c1")
0.0
>>> label_value("NS(=O)(=O)OCC1CC(n2ccc3c(NC4CCc5ccccc54)ncnc32)CC1O (stereo unspecified) + Cc1cncc(-c2nc(NCCc3c[nH]c4ccccc34)c3ncn(C(C)C)c3n2)c1")
1.0
>>> label_value("CC1(C)CCC(CN2CCN(c3ccc(C(=O)NS(=O)(=O)c4ccc(NCC5CCOCC5)c([N+](=O)[O-])c4)c(Oc4cnc5[nH]ccc5c4)c3)CC2)=C(c2ccc(Cl)cc2)C1 + Cc1ccccc1N=Nc1ccc(NC(=O)c2ccnn2C)c(C)c1")
0.0
